Value source: PubChem BioAssay

# MEASURED_TARGET: Nuclear receptor coactivator 2 (Homo sapiens) (UniProt Q15596)
# Sequence (Q15596 whole entry, looked up): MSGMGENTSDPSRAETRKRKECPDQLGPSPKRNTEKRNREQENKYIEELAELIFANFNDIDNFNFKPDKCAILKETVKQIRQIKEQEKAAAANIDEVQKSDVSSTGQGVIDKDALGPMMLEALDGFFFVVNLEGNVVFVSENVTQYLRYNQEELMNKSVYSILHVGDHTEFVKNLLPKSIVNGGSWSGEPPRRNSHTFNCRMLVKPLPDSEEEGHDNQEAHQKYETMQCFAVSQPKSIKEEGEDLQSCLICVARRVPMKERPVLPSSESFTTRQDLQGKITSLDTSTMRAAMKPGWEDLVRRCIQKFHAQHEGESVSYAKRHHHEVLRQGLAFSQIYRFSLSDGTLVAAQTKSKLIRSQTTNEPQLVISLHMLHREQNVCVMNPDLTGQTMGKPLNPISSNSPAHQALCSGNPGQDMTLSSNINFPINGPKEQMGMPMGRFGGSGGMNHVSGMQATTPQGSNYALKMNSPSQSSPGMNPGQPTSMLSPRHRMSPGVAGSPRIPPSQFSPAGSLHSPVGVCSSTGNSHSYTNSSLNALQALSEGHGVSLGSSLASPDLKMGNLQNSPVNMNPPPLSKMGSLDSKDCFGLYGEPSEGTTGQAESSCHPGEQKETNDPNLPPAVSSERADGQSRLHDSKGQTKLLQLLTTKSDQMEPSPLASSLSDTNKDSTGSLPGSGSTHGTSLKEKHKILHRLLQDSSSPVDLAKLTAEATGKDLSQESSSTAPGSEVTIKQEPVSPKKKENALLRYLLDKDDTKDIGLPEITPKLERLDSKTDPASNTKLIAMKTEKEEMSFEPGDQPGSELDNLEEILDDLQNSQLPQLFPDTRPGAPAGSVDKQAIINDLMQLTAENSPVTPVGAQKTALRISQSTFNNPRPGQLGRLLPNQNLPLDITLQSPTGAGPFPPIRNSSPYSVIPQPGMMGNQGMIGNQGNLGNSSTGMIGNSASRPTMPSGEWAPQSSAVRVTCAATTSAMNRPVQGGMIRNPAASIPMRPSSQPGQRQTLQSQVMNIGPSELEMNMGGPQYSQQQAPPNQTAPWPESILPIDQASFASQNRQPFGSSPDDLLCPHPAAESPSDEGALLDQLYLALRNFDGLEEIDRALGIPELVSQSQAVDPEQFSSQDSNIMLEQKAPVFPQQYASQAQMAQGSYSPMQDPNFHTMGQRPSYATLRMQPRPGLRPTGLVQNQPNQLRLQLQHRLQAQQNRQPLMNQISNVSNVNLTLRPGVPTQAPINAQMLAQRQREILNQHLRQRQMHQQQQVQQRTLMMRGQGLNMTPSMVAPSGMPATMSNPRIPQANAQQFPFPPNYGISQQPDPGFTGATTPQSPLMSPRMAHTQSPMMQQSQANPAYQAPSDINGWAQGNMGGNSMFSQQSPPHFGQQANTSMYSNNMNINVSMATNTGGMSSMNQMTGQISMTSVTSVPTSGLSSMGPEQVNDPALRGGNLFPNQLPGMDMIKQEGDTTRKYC
# ASSAY: SRC2 coactivator transcriptional activity inhibitors, confirmation, cell-based, luminescence, HEK293, triplicate (AID 652008);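 note: 0% = DMSO-treated cells and 100% = Gossypol at 36 µM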
# CONDITION_CONTEXT: HEK293 GAL4-SRC2 luciferase reporter, at 8.9 µM
Calls of active or inactive are those of the source.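 Rule for the calls: active = mean inhibition above 46.5%, the solvent-only control mean plus 3 SD; inactive = the rest.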
Outcome codes: true for active, false for inactive

{"COMPOUND": "CC(C)c1oc(=O)cc2c1[C@@H](O)[C@H]1OC(=O)[C@@]3(C)C[C@@H](O)[C@@H](O)[C@@]2(C)C13 (some centres undefined)", "MEASURED_TARGET": "Nuclear receptor coactivator 2 (Homo sapiens) (UniProt Q15596)", "LABEL": "false"}
{"COMPOUND": "CC1CCOC(=O)C=CC=CC(=O)OC2CC3OC4C5OC5(C)C(O)CC4(COC(=O)C1O)C2(C)C31CO1 (centres undefined)", "MEASURED_TARGET": "Nuclear receptor coactivator 2 (Homo sapiens) (UniProt Q15596)", "LABEL": "true"}
{"COMPOUND": "COC1C(O)C(C)OC(OC2CCC3(C)C(CCC4C3C(O)CC3(C)C(C5=CC(=O)OC5)CCC43O)C2)C1O (centres undefined)", "MEASURED_TARGET": "Nuclear receptor coactivator 2 (Homo sapiens) (UniProt Q15596)", "LABEL": "false"}
{"COMPOUND": "CN1C2CCC1/C(=C/c1ccccn1)C(=O)/C2=C\\c1ccccn1", "MEASURED_TARGET": "Nuclear receptor coactivator 2 (Homo sapiens) (UniProt Q15596)", "LABEL": "true"}

----------
# Test system: transactivating tegument protein VP16 (Human herpesvirus 1), Gal4-VP16 luciferase reporter
# ASSAY: VP16 transactivation inhibitors, counter-screen for SRC3 inhibitor project, cell-based, luminescence, high throughput (AID 588794)
# CONDITION_CONTEXT: mammalian cells, VP16-driven luciferase reporter luminescence; at 3.6 µM; hits give high values

{"MOLECULE": "CC(=O)c1c(C)n(C2CCCCC2)c2ccc(O)cc12", "MEASURED_TARGET": "transactivating tegument protein VP16 (Human herpesvirus 1), Gal4-VP16 luciferase reporter", "VALUE_UNIT": "%", "inhibition": 58.5}
{"MOLECULE": "CCN(CCCl)c1cc(CN(C)C)cc(NC(=O)c2ccc(C(=O)Nc3cc(CN(C)C)cc(N(CC)CCCl)c3)cc2)c1", "MEASURED_TARGET": "transactivating tegument protein VP16 (Human herpesvirus 1), Gal4-VP16 luciferase reporter", "VALUE_UNIT": "%", "inhibition": 92}
{"MOLECULE": "COc1cc2cc(C(=O)N3CC(COS(C)(=O)=O)c4ccc(O)cc43)[nH]c2c(OC)c1OC (stereo not given)", "MEASURED_TARGET": "transactivating tegument protein VP16 (Human herpesvirus 1), Gal4-VP16 luciferase reporter", "VALUE_UNIT": "%", "inhibition": 96.2}
{"MOLECULE": "CSCCC(c1nnnn1Cc1ccccc1)N1CCC(n2c(=O)[nH]c3ccccc32)CC1 (stereo not given)", "MEASURED_TARGET": "transactivating tegument protein VP16 (Human herpesvirus 1), Gal4-VP16 luciferase reporter", "VALUE_UNIT": "%", "inhibition": 46.3}
{"MOLECULE": "CC/C(=N\\Nc1ccccc1)c1c(O)[nH]c(=O)[nH]c1=O", "MEASURED_TARGET": "transactivating tegument protein VP16 (Human herpesvirus 1), Gal4-VP16 luciferase reporter", "VALUE_UNIT": "%", "inhibition": 20.4}
